# target.entity: nanoFAST (Halorhodospira halophila, UniProt P16113, Q41K/E46Q/C69G/S72T/A84S/Y94W/T95A/F96I/D97P/Y98T/Q99S/M100R/T101G/M109L/S117R)
# Construct: gene pyp; FAST (engineered PYP) lacking the first 27 residues, 98 aa; C-terminal tag of three glycines and six histidines; E. coli BL21(DE3), Ni purification
# Sequence (P16113 28-125 with the stated changes): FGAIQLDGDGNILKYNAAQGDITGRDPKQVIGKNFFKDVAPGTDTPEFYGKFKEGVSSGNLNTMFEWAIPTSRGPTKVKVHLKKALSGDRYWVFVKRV
# method.description: spectrofluorometric titration, plate reader
# Type: binding
# assay.context: PBS pH 7.4, 25 °C, 0.10 µM protein; non-covalent fluorogen
Could you please report measured Kd for the items listed next?
Answers are plain numbers, in µM.

| smiles.string | units | Kd |
| --- | --- | --- |
| COc1cc(/C=C2\SC(=S)NC2=O)c(OC)cc1O | µM | 0.13 |
| Cc1cc(/C=C2\SC(=S)NC2=O)c(C)cc1O | µM | 0.5 |

Then this molecule:
Input: Tell me Kd reported for `COc1cc(/C=C2\SC(=S)NC2=O)cc(OC)c1O`
Output: 1.69
